Task for the reader: assign each of the following compounds its reported MIC.
test system: Mycobacterium tuberculosis; experiment: Antimycobacterial activity against Mycobacterium tuberculosis H37Ra by microplate alamar blue assay; format: functional
Supply the numeric figure in µg/mL, leaving out any unit text.

Qu. Given `C=C(C)[C@@H]1CC[C@]2(C(=O)O)CC[C@]3(C)[C@H](CC[C@@H]4[C@@]5(C)CC[C@H](OC(=O)/C=C/c6ccc(O)cc6)C(C)(C)[C@@H]5CC[C@]43C)[C@@H]12` , state its recorded MIC.
Ans. 6.25

Qu. Need MIC of `C=C(C)[C@@H]1CC[C@]2(C(=O)O)CC[C@]3(C)[C@H](CC[C@@H]4[C@@]5(C)CC[C@H](O)C(C)(C)[C@@H]5CC[C@]43C)[C@@H]12` , thanks.
Ans. 50

Qu. Dear colleague, I am looking for the recorded MIC of the following compound: `CC1(C)CC[C@]2(C(=O)O)CC[C@]3(C)C(=CC[C@@H]4[C@@]5(C)CC[C@H](OC(=O)/C=C/c6ccc(O)cc6)C(C)(C)[C@@H]5CC[C@]43C)[C@@H]2C1`
Ans. 6.25

Qu. # input compound: `C[C@H]1[C@H](C)CC[C@]2(C(=O)O)CC[C@]3(C)C(=CC[C@@H]4[C@@]5(C)CC[C@H](OC(=O)/C=C/c6ccc(O)cc6)C(C)(C)[C@@H]5CC[C@]43C)[C@H]12` ; wanted: its MIC
Ans. 6.25

Qu. Need MIC of `COc1cc(/C=C/C(=O)O)ccc1O.C[C@H]1[C@H](C)CC[C@]2(C(=O)O)CC[C@]3(C)C(=CC[C@@H]4[C@@]5(C)CC[C@H](O)C(C)(C)[C@@H]5CC[C@]43C)[C@H]12` , thanks.
Ans. 3.13

Qu. Need MIC of `CC1(C)CC[C@]2(C(=O)O)CC[C@]3(C)C(=CC[C@@H]4[C@@]5(C)CC[C@H](O)C(C)(C)[C@@H]5CC[C@]43C)[C@@H]2C1` , thanks.
Ans. 25
